Reference source: the Immune Epitope Database (IEDB)

# system-under-test: HLA-B*07:02
# experiment-summary: IEDB peptide-MHC binding, purified MHC/direct/fluorescence; filed as Kd, often an IC50 or EC50 that approximates it; bounds were set here for any values at or beyond the usual limits of such assays
# condition-summary: source organism: Giardia lamblia ATCC 50803
quantity-kind: Kd

Field: example entries. Status: answers known.
sequence-chain	Kd
RHIAIQVCY	≥ 20 µM
EALAMCLPY	5.2 µM
AEFPVGSTA	≥ 20 µM
TTIEDILPK	≥ 20 µM

Prompt: # lookup: Kd of "FMKVKFEAL"
Completion: ≥ 20 µM

* * *

# system-under-test: HLA-B*44:03
# experiment-summary: IEDB peptide-MHC binding, purified MHC/competitive/radioactivity; filed as Kd, often an IC50 or EC50 that approximates it; bounds were set here for any values at or beyond the usual limits of such assays
# condition-summary: source organism: Mammarenavirus brazilense
quantity-kind: Kd (µM)
Answers are plain numbers, in µM.

Sample answers from the record:
sequence-chain	system-under-test	Kd [µM]
LESAQPGLL	HLA-B*44:03	16.8
GEHSLPRCW	HLA-B*44:03	0.0802

In the following, a different sequence is considered.
Prompt: Fill in: Kd of "IDPTLTTWI" is ___
Completion: 1.37

* * *

# system-under-test: HLA-A*30:01
# experiment-summary: IEDB peptide-MHC binding, purified MHC/competitive/radioactivity; filed as Kd, often an IC50 or EC50 that approximates it; bounds were set here for any values at or beyond the usual limits of such assays
# condition-summary: source organism: Dengue virus 1 Brazil/97-11/1997
quantity-kind: pKd
One number for each entry, as −log10 of the molar value.

sequence-chain	pKd
GSLLTCAKFK	6.36
SFKKNGAIK	6.45
FTMAHRKPTY	5.64

Prompt: Reported pKd for "LSIVSLFPLC" : what is it?
Completion: 6.10

* * *

# system-under-test: HLA-B*08:01
# experiment-summary: IEDB peptide-MHC binding, purified MHC/direct/fluorescence; filed as Kd, often an IC50 or EC50 that approximates it; bounds were set here for any values at or beyond the usual limits of such assays
# condition-summary: source organism: Escherichia coli O157:H7
pKd: −log10 of the molar value.
quantity-kind: pKd

Prompt: Please look up its pKd: "ITAGYNRYY"
Completion: ≤ 4.70

* * *

# system-under-test: HLA-B*44:02
# experiment-summary: IEDB peptide-MHC binding, purified MHC/direct/fluorescence; filed as Kd, often an IC50 or EC50 that approximates it; bounds were set here for any values at or beyond the usual limits of such assays
# condition-summary: source organism: Influenza A virus (A/Hong Kong/507/97(H5N1))
quantity-kind: Kd

Prompt: Could you share which Kd value was measured for "GTSKIKMKW" ?
Completion: ≥ 20 µM

* * *

# system-under-test: HLA-B*18:01
# experiment-summary: IEDB peptide-MHC binding, purified MHC/competitive/fluorescence; filed as Kd, often an IC50 or EC50 that approximates it; bounds were set here for any values at or beyond the usual limits of such assays
# condition-summary: source organism: Reston ebolavirus - Reston (1989)
pKd: −log10 of the molar value.
quantity-kind: pKd

Prompt: Request the reported pKd associated with "LIMEFNSLL"
Completion: ≤ 4.70

* * *

# system-under-test: HLA-A*11:01
# experiment-summary: IEDB peptide-MHC binding, purified MHC/direct/fluorescence; filed as Kd, often an IC50 or EC50 that approximates it; bounds were set here for any values at or beyond the usual limits of such assays
# condition-summary: source organism: Ebola virus - Mayinga, Zaire, 1976
quantity-kind: Kd

Prompt: Lookup: Kd / HLA-A*11:01 / "FIYFGKKQY"
Completion: ≥ 20 µM

* * *

# system-under-test: HLA-A*26:01
# experiment-summary: IEDB peptide-MHC binding, purified MHC/competitive/radioactivity; filed as Kd, often an IC50 or EC50 that approximates it; bounds were set here for any values at or beyond the usual limits of such assays
# condition-summary: source organism: Lymphocytic choriomeningitis virus (strain Armstrong)
quantity-kind: Kd (µM)
One number for each entry, in µM.

Prompt: // Kd lookup, key: "KVNTTIARY"
Completion: 7.46

* * *

# system-under-test: HLA-B*53:01
# experiment-summary: IEDB peptide-MHC binding, purified MHC/competitive/radioactivity; filed as Kd, often an IC50 or EC50 that approximates it; bounds were set here for any values at or beyond the usual limits of such assays
# condition-summary: source organism: Hepacivirus hominis
quantity-kind: Kd

Prompt: Which Kd is reported for this sequence? "HSKRKCDEL"
Completion: ≥ 30.1 µM

* * *

# system-under-test: HLA-B*53:01
# experiment-summary: IEDB peptide-MHC binding, purified MHC/competitive/fluorescence; bounds were set here for any values at or beyond the usual limits of such assays
# condition-summary: source organism: Monodelphis domestica
quantity-kind: IC50

Prompt: Entry under review: "FLLPILSQIYT" . Reported IC50?
Completion: ≥ 20 µM

* * *

# system-under-test: HLA-A*23:01
# experiment-summary: IEDB peptide-MHC binding, purified MHC/direct/fluorescence; filed as Kd, often an IC50 or EC50 that approximates it; bounds were set here for any values at or beyond the usual limits of such assays
# condition-summary: source organism: Reston ebolavirus
quantity-kind: Kd

Prompt: Lab note: need Kd with HLA-A*23:01 for entry "ITDEINQIK" , please look it up.
Completion: ≥ 20 µM

* * *

# system-under-test: HLA-B*44:02
# experiment-summary: IEDB peptide-MHC binding, purified MHC/competitive/radioactivity; filed as Kd, often an IC50 or EC50 that approximates it; bounds were set here for any values at or beyond the usual limits of such assays
# condition-summary: source organism: Dengue virus 3 Martinique/1243/1999
For each of the sequences below, state its Kd.
Answers are plain numbers, in nM.

sequence-chain	quantity-kind	numeric-value
LEFFMMVLL	Kd	10100

Please give Kd, item by item, for the list that follows.
1. AICSAVPVHW
2. QKEGVFHTMW

Completion:
2400
181

* * *

# system-under-test: HLA-A*11:01
# experiment-summary: IEDB peptide-MHC binding, purified MHC/direct/fluorescence; filed as Kd, often an IC50 or EC50 that approximates it; bounds were set here for any values at or beyond the usual limits of such assays
# condition-summary: source organism: Bacillus licheniformis
pKd: −log10 of the molar value.
quantity-kind: pKd

Prompt: Dear colleague, I am looking for the recorded pKd of the following sequence: "KTIECSKEL"
Completion: ≤ 4.70

* * *

# system-under-test: HLA-B*18:01
# experiment-summary: IEDB peptide-MHC binding, purified MHC/competitive/fluorescence; filed as Kd, often an IC50 or EC50 that approximates it; bounds were set here for any values at or beyond the usual limits of such assays
# condition-summary: source organism: Coxiella burnetii RSA 331
quantity-kind: Kd

Prompt: Entry under review: "HMNKLPLAK" . Reported Kd?
Completion: ≥ 20 µM

* * *

# system-under-test: HLA-A*03:01
# experiment-summary: IEDB peptide-MHC binding, purified MHC/competitive/fluorescence; filed as Kd, often an IC50 or EC50 that approximates it; bounds were set here for any values at or beyond the usual limits of such assays
# condition-summary: source organism: Vibrio parahaemolyticus K5030
quantity-kind: Kd (nM)
Numbers only, in nM.

Prompt: Test system HLA-A*03:01; read-out Kd; what value for "KVHAVLTEK" ?
Completion: 20.6

* * *

# system-under-test: HLA-B*07:02
# experiment-summary: IEDB peptide-MHC binding, purified MHC/direct/fluorescence; filed as Kd, often an IC50 or EC50 that approximates it; bounds were set here for any values at or beyond the usual limits of such assays
# condition-summary: source organism: Escherichia coli O157:H7
pKd: −log10 of the molar value.
Answer each item with its documented pKd.

As a guide, the following entries are already answered.
sequence-chain	pKd
ITAGYNRYY	≤ 4.70
ETWVETWAF	≤ 4.70

// moving on: another record for pKd
Prompt: Quick check: pKd of "LLKLWIDKV" ?
Completion: ≤ 4.70

* * *

# system-under-test: HLA-A*01:01
# experiment-summary: IEDB peptide-MHC binding, purified MHC/competitive/radioactivity; filed as Kd, often an IC50 or EC50 that approximates it; bounds were set here for any values at or beyond the usual limits of such assays
# condition-summary: source organism: Hepacivirus hominis
pKd: −log10 of the molar value.
quantity-kind: pKd

Prompt: // lookup pKd for "HSKRKCDEL"
Completion: ≤ 4.22

* * *

Kindly state pKd for each of the entries shown.
# system-under-test: HLA-A*02:06
# experiment-summary: IEDB peptide-MHC binding, purified MHC/competitive/radioactivity; filed as Kd, often an IC50 or EC50 that approximates it; bounds were set here for any values at or beyond the usual limits of such assays
# condition-summary: source organism: Vaccinia virus WR
Give bare numbers, as −log10 of the molar value.

sequence-chain	system-under-test	numeric-value
KINEMVDELV	HLA-A*02:06	5.52
IAVITETIPI	HLA-A*02:06	8.98
IIPFIAYFVL	HLA-A*02:06	6.07

Could you report pKd for every entry in the following list?
1. QVLQQNNSFI
2. TIDKSSPLYI

Completion:
1. 5.63
2. 5.74

List pKd for every entry below, keeping the order given.
1. TAYIGTSNWT
2. LIYRQLTSNV
3. RAFIYSIMET
4. ALEQYGIENT
5. QIGGEAIFLI
6. FVMCLEAKT
7. EVRYIDITNI

Completion:
1: 6.66; 2: 6.77; 3: 6.24; 4: 5.90; 5: 7.83; 6: 6.01; 7: 5.36

List reported pKd for each of these sequences:
1. SISEINEWL
2. NVSGVPHSV
3. GVCYYLLMHL
4. TVPTNDHIPV
5. KTIAVSVYGA
6. MQKFTILEYL
7. SICLDYIIV

Completion:
1. 8.20
2. 6.56
3. 6.89
4. 6.29
5. 6.37
6. 6.04
7. 6.16

Take each entry in turn and give its pKd.
1. LTQVKELGIA
2. YTRPEIDVL
3. FVKENERVNV

Completion:
1: 7.74; 2: 6.81; 3: 6.17
